TEST DETAILS: amyloid nucleation score (Sup35N fusion, yeast selection) (log enrichment); library NNK3; higher = more nucleation; inactive = no reads after selection;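 further: zero at mode of non-aggregating sequences after 7 days selection at 30°C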
OBSERVABLE: amyloid nucleation score

Take a look at these entries with their results.
{"SUBSTANCE": "SAQPESY", "ENDPOINT VALUE": "inactive"}
{"SUBSTANCE": "LVASSYS", "ENDPOINT VALUE": "inactive"}
{"SUBSTANCE": "YISSFRGDIVIY", "ENDPOINT VALUE": "inactive"}
{"SUBSTANCE": "GDSNTSRLCAPSMRNVKAQL", "ENDPOINT VALUE": "inactive"}

Using known records, supply amyloid nucleation score for TSGDMRAVYGLYREIRLVNT inactive

Using known records, supply amyloid nucleation score for MSSQVMALIRFQFHSHDSHG 1.36

Using known records, supply amyloid nucleation score for YSNRVGNAYMGSLKTSWHVM inactive

Using known records, supply amyloid nucleation score for ILSNINFVRNSFCYYMINFI inactive

* * *

TEST DETAILS: amyloid nucleation score (Sup35N fusion, yeast selection) (log enrichment); library NNK1; higher = more nucleation; inactive = no reads after selection
OBSERVABLE: amyloid nucleation score
Field format: numeric only.

Using known records, supply amyloid nucleation score for RAHNKISDDTRAFMGSIFSE -0.05

Using known records, supply amyloid nucleation score for LTNTGEYQLVSTIPQGRHVV -0.222

Using known records, supply amyloid nucleation score for AIIERADLSGMPLFSGFPGD -0.148

Using known records, supply amyloid nucleation score for DHWSASIVIPVWSERNNSFG -0.373

Using known records, supply amyloid nucleation score for LESRFRKMFPRVVRDTWGRG -0.628

Using known records, supply amyloid nucleation score for RIDCYW -0.858

Using known records, supply amyloid nucleation score for CNWATLTMWLLSCIRPTPRS -1.1

Using known records, supply amyloid nucleation score for YNFCILCSSPIIVFAAPVQR 8.03

Using known records, supply amyloid nucleation score for KSRFSDGGSSWFCGTFMFYT -0.723

Using known records, supply amyloid nucleation score for VIFDNGRLIEHCYERLTRPW -0.327

Using known records, supply amyloid nucleation score for LNRGYAGFSLN -1.86

Using known records, supply amyloid nucleation score for SYNMTITACSNGFPEQRDT 0.062

Using known records, supply amyloid nucleation score for ASYRKCLLCIRLNC -0.753

Using known records, supply amyloid nucleation score for GVLGTGMRNCA 0.277

Using known records, supply amyloid nucleation score for PMIPKFMSERCQLIWWM 0.961

Using known records, supply amyloid nucleation score for NIKANQLKGTWKRRTMYRWS -0.271

Using known records, supply amyloid nucleation score for VASGSCFFRDPKIVIMSFLW 3.34

* * *

TEST DETAILS: amyloid nucleation score (Sup35N fusion, yeast selection) (log enrichment); library NNK3; higher = more nucleation; inactive = no reads after selection
OBSERVABLE: amyloid nucleation score

Take a look at these entries with their results.
{"SUBSTANCE": "RKHAGLYLQYE", "amyloid nucleation score": "inactive"}
{"SUBSTANCE": "TWINFFGTYILWPNFNYSTR", "amyloid nucleation score": 2.66}
{"SUBSTANCE": "DCWYHMPHQIWH", "amyloid nucleation score": "inactive"}
{"SUBSTANCE": "HPVLRIRLLREKMMRFS", "amyloid nucleation score": "inactive"}
{"SUBSTANCE": "INTEGLVVIVGGRLYVILRV", "amyloid nucleation score": "inactive"}

Then this substance:
Using known records, supply amyloid nucleation score for LSWDVYSRHFG 2.31

Hello, the source for this data is the supplement of paper PMC12042874, in case you need it.
